# Tested on: 60 cancer cell lines (NCI 60 cancer cell line series)
# assay_summary: NCI-DTP in vitro cancer screen, sulforhodamine B (SRB) growth inhibition, 48 hour exposure
# Assay type: cell-based, human
# protocol_conditions: Colon KM12 CL4017
A collection of compounds and their measured classification of cell line as Low(1), Medium(2), High(3) sensitivity to compound
I'd appreciate a reply containing only the number, no unit.

compound NC(=O)NO [Hydroxyurea] , classification of cell line as Low(1), Medium(2), High(3) sensitivity to compound observed: 2

Form field classification of cell line as Low(1), Medium(2), High(3) sensitivity to compound, entry CS(=O)(=O)OCCCCOS(C)(=O)=O : 1

The compound COc1cccc2c1C(=O)c1c(O)c3c(c(O)c1C2=O)C[C@@](O)(C(=O)CO)C[C@@H]3OC1CC(N)CC(C)O1.Cl (stereo partly drawn) showed classification of cell line as Low(1), Medium(2), High(3) sensitivity to compound equal to 2

Item: Sc1ncnc2nc[nH]c12 | classification of cell line as Low(1), Medium(2), High(3) sensitivity to compound: 2

Record N[C@@H](Cc1ccc(N(CCCl)CCCl)cc1)C(=O)O , field classification of cell line as Low(1), Medium(2), High(3) sensitivity to compound: 1

// COc1cc([C@@H]2c3cc4c(cc3[C@@H](O[C@@H]3O[C@@H]5CO[C@@H](C)O[C@H]5[C@H](O)[C@H]3O)[C@H]3COC(=O)[C@H]23)OCO4)cc(OC)c1O [Etoposide] : classification of cell line as Low(1), Medium(2), High(3) sensitivity to compound value = 2

So for O=C(O)CCCc1ccc(N(CCCl)CCCl)cc1 , the logged classification of cell line as Low(1), Medium(2), High(3) sensitivity to compound turned out to be 1

Notebook: CC(=O)O[C@H]1C(=O)[C@@]2(C)[C@H]([C@H](OC(=O)c3ccccc3)[C@]3(O)C[C@H](OC(=O)[C@H](O)[C@@H](NC(=O)c4ccccc4)c4ccccc4)C(C)=C1C3(C)C)[C@]1(OC(C)=O)CO[C@@H]1C[C@@H]2O [TAXOL, paclitaxel, reference compound] , classification of cell line as Low(1), Medium(2), High(3) sensitivity to compound read as 2

From here, focus on the item given below.
Data point: COc1cc([C@@H]2c3cc4c(cc3[C@@H](O[C@@H]3O[C@@H]5CO[C@@H](c6cccs6)O[C@H]5[C@H](O)[C@H]3O)[C@H]3COC(=O)[C@H]23)OCO4)cc(OC)c1O [Teniposide] ; classification of cell line as Low(1), Medium(2), High(3) sensitivity to compound = 2

* * *

# Test system: 60 cancer cell lines (NCI 60 cancer cell line series)
# assay_summary: NCI-DTP in vitro cancer screen, sulforhodamine B (SRB) growth inhibition, 48 hour exposure
# Format: cell-based, human
# protocol_conditions: Renal UO-31 CL9004
Counter-ions that a name gives are not always drawn.
sensitivity classification Low(1)/Medium(2)/High(3) overview

Recorded sensitivity classification Low(1)/Medium(2)/High(3), per entry:
// field: sensitivity classification Low(1)/Medium(2)/High(3); key: N[C@@H](Cc1ccc(N(CCCl)CCCl)cc1)C(=O)O ; value = 2

# sensitivity classification Low(1)/Medium(2)/High(3) (molecule: N.N.[Cl][Pt][Cl] [cisplatin, cis-Diamminedichloroplatinum (II), reference compound] ) is 2

Lab note: COc1cccc2c1C(=O)c1c(O)c3c(c(O)c1C2=O)C[C@@](O)(C(C)=O)C[C@@H]3O[C@H]1C[C@H](N)[C@H](O)[C@H](C)O1 gave sensitivity classification Low(1)/Medium(2)/High(3) of 1

get_value(item= O=C(O)CCCc1ccc(N(CCCl)CCCl)cc1 , readout=sensitivity classification Low(1)/Medium(2)/High(3)) returns 2

COc1cc([C@@H]2c3cc4c(cc3[C@@H](O[C@@H]3O[C@@H]5CO[C@@H](C)O[C@H]5[C@H](O)[C@H]3O)[C@H]3COC(=O)[C@H]23)OCO4)cc(OC)c1O [Etoposide] has a reported sensitivity classification Low(1)/Medium(2)/High(3) of 1

# sensitivity classification Low(1)/Medium(2)/High(3) (molecule: CC[C@]1(O)C[C@H]2CN(CCc3c([nH]c4ccccc34)[C@@](C(=O)OC)(c3cc4c(cc3OC)N(C=O)[C@H]3[C@@](O)(C(=O)OC)[C@H](OC(C)=O)[C@]5(CC)C=CCN6CC[C@]43[C@@H]65)C2)C1 [Vincristine sulfate] ) is 1

Note to self: sensitivity classification Low(1)/Medium(2)/High(3) recorded for O=c1[nH]cc(F)c(=O)[nH]1 was 2

Looking up CC[C@]1(O)C[C@@H]2CN(CCc3c([nH]c4ccccc34)[C@@](C(=O)OC)(c3cc4c(cc3OC)N(C)[C@H]3[C@@](O)(C(=O)OC)[C@H](OC(C)=O)[C@]5(CC)C=CCN6CC[C@]43[C@@H]65)C2)C1 [Vinblastine sulfate] , I found its sensitivity classification Low(1)/Medium(2)/High(3) recorded as 1

Next:
For record Sc1ncnc2nc[nH]c12 the listed sensitivity classification Low(1)/Medium(2)/High(3) is 2

Summary for this molecule, O=C1c2c(O)ccc(O)c2C(=O)c2c(NCCNCCO)ccc(NCCNCCO)c21 : sensitivity classification Low(1)/Medium(2)/High(3) is 1

sensitivity classification Low(1)/Medium(2)/High(3) recorded for this molecule, COc1cc([C@@H]2c3cc4c(cc3[C@@H](O[C@@H]3O[C@@H]5CO[C@@H](c6cccs6)O[C@H]5[C@H](O)[C@H]3O)[C@H]3COC(=O)[C@H]23)OCO4)cc(OC)c1O [Teniposide] , is 1

The molecule listed as COc1cccc2c1C(=O)c1c(O)c3c(c(O)c1C2=O)C[C@@](O)(C(=O)CO)C[C@@H]3OC1CC(N)CC(C)O1.Cl (some centres unmarked) shows sensitivity classification Low(1)/Medium(2)/High(3) equal to 1

Entry CS(=O)(=O)OCCCCOS(C)(=O)=O ; sensitivity classification Low(1)/Medium(2)/High(3) = 1

In plain terms, COc1cccc2c1C(=O)c1c(O)c3c(c(O)c1C2=O)C[C@@](O)(C(=O)CO)C[C@@H]3O[C@H]1C[C@H](N)[C@H](O)[C@H](C)O1 has a documented sensitivity classification Low(1)/Medium(2)/High(3) of 1

* * *

# Tested on: 60 cancer cell lines (NCI 60 cancer cell line series)
# assay_summary: NCI-DTP in vitro cancer screen, sulforhodamine B (SRB) growth inhibition, 48 hour exposure
# Type: cell-based, human
# protocol_conditions: NSCLC NCI-H226 CL1013
Structures can show the parent of a compound that is named as a salt.
measured_property: classification of cell line as Low(1), Medium(2), High(3) sensitivity to compound
Lab note: jot the number down without any unit.

classification of cell line as Low(1), Medium(2), High(3) sensitivity to compound in this record for NC(=O)NO [Hydroxyurea] : 2

Record summary for O=C1c2c(O)ccc(O)c2C(=O)c2c(NCCNCCO)ccc(NCCNCCO)c21 [Mitoxantrone] : reported classification of cell line as Low(1), Medium(2), High(3) sensitivity to compound = 3

The recorded classification of cell line as Low(1), Medium(2), High(3) sensitivity to compound for entry Sc1ncnc2nc[nH]c12 [6-mercaptopurine] equals 1

Per the record, CC[C@]1(O)C[C@H]2CN(CCc3c([nH]c4ccccc34)[C@@](C(=O)OC)(c3cc4c(cc3OC)N(C=O)[C@H]3[C@@](O)(C(=O)OC)[C@H](OC(C)=O)[C@]5(CC)C=CCN6CC[C@]43[C@@H]65)C2)C1 [Vincristine sulfate] has classification of cell line as Low(1), Medium(2), High(3) sensitivity to compound of 2

For this compound ( CN(Cc1cnc2nc(N)nc(N)c2n1)c1ccc(C(=O)N[C@@H](CCC(=O)O)C(=O)O)cc1 [Methotrexate] ), measured classification of cell line as Low(1), Medium(2), High(3) sensitivity to compound is 1

Further cases:
Quick note, classification of cell line as Low(1), Medium(2), High(3) sensitivity to compound for CC[C@]1(O)C[C@@H]2CN(CCc3c([nH]c4ccccc34)[C@@](C(=O)OC)(c3cc4c(cc3OC)N(C)[C@H]3[C@@](O)(C(=O)OC)[C@H](OC(C)=O)[C@]5(CC)C=CCN6CC[C@]43[C@@H]65)C2)C1 [Vinblastine sulfate] landed at 2

The reported classification of cell line as Low(1), Medium(2), High(3) sensitivity to compound of the compound COc1cccc2c1C(=O)c1c(O)c3c(c(O)c1C2=O)C[C@@](O)(C(C)=O)C[C@@H]3O[C@H]1C[C@H](N)[C@H](O)[C@H](C)O1 [Daunorubicin] was 2

Please fill in: classification of cell line as Low(1), Medium(2), High(3) sensitivity to compound reported for N[C@@H](Cc1ccc(N(CCCl)CCCl)cc1)C(=O)O [Melphalan] = 2

Short answer for CS(=O)(=O)OCCCCOS(C)(=O)=O [Busulfan] : classification of cell line as Low(1), Medium(2), High(3) sensitivity to compound was 2

For O=C(O)CCCc1ccc(N(CCCl)CCCl)cc1 [Chlorambucil] the compound record lists classification of cell line as Low(1), Medium(2), High(3) sensitivity to compound as 2

Cited source: patent US20030129629A1
